All figures here come from PubChem BioAssay AID330.

Field: T/C. Provide a value for each of the compounds that follow.
- System: P388 leukemia ip, CD2F1 mice, survival T/C
- assayName: NCI In Vivo Anticancer Drug Screen. Data for tumor model P388 Leukemia (intraperitoneal) in CD2F1 (CDF1) mice
- conditionInfo: endpoint: median survival time; dose: 50.0 mg/kg/injection; schedule: Q01DX009 (ip); vehicle: suspension in saline; higher = longer survival
Inconclusive results and toxic doses are left out.

Look over these answered cases.
{"columns": ["compound", "T/C"],
 "data": [
  ["Fc1cccc(CSC(=S)Nc2ccc(Cl)c(C(F)(F)F)c2)c1", "98 % of control"],
  ["O=C1CSC(=S)N1c1cccc(F)c1", "108 % of control"],
  ["Nc1nc(N)nc(-c2ccccc2)n1", "106 % of control"],
  ["S=C(Nc1ccc(I)cc1)SCc1ccco1", "90 % of control"],
  ["Cc1cc(NC(=S)SC(C)C)ccc1Br", "100 % of control"]
]}

Entry CCCCCCCCCCCCCCCC(=O)NCCCCC(N)C(=O)O (stereo unspecified) , tested on P388 leukemia ip, CD2F1 mice, survival T/C, has a reported T/C of 94 % of control

---

- Tested on: P388 leukemia ip, CD2F1 mice, survival T/C
- assayName: NCI In Vivo Anticancer Drug Screen. Data for tumor model P388 Leukemia (intraperitoneal) in CD2F1 (CDF1) mice
- conditionInfo: endpoint: median survival time; dose: 100.0 mg/kg/injection; schedule: Q01DX005 (ip); vehicle: Klucel (hydroxypropylcellulose) (HPC); higher = longer survival
Inconclusive results and toxic doses are left out.
Please respond with reported T/C for every item in the list.

Below, each entry is followed by its recorded T/C result.
{"columns": ["compound", "T/C"],
 "data": [
  ["CCCCOC(=O)C1ON(c2ccc(C=O)cc2)C(c2ccc([N+](=O)[O-])cc2)C1C(=O)OCCCC (configuration not stated)", "94 % of control"],
  ["O=C(NNC(=O)C12CC3CC(CC(C3)C1)C2)C12CC3CC(CC(C3)C1)C2", "105 % of control"],
  ["CCC(C)NS(=O)(=O)c1ccccc1C(=O)OC (configuration not stated)", "99 % of control"],
  ["Cc1nc2ccccc2c(=O)n1/N=C1/C(=O)Nc2ccc(Br)cc21", "91 % of control"],
  ["CN1CCc2c1n(-c1ccccc1)c(=S)n(-c1ccccc1)c2=S", "100 % of control"],
  ["C=C(C)C1CC=C(C)C(OCCN(CC)CC)C1 (configuration not stated)", "103 % of control"],
  ["C=C1C2CC[C@H]3C4(C)CCCC(C)(C(=O)O)[C@H]4CCC3(C2)[C@@H]1OC(C)=O (some centres not stated)", "90 % of control"],
  ["CCC(C)N=Cc1ccco1 (configuration not stated)", "90 % of control"],
  ["CC(=NC1CCCCC1)Nc1ccc(NC(=O)c2ccc(C(=O)Nc3ccc(NC(C)=NC4CCCCC4)cc3)cc2)cc1", "98 % of control"],
  ["COc1cc(/C=N/NC(=O)c2ccc(NC(C)=O)cc2)ccc1O", "90 % of control"]
]}

Go through the list and state T/C for each entry.
1. CC(=O)c1ccc(Cl)c(-n2cccc2)c1
2. CCOC(=O)COc1cc2c(cc1C(C)c1ccc(OCC)cc1)OCO2 (configuration not stated)
3. COc1ccc(C2CCCC(CCc3ccc(O)cc3)O2)cc1 (configuration not stated)
4. Cc1nc2cc3ccccc3cc2nc1C
5. O=[N+]([O-])c1ccc(N2C(c3ccccc3)=N[C@@H](N3CCOCC3)[C@@H]2N2CCOCC2)cc1
6. CCCC(NC(=O)OCc1ccccc1)C(=O)NC(Cc1c[nH]c2ccccc12)C(=O)O (configuration not stated)
7. COC(=O)C[C@@]1(C(=O)OC)[C@H](C(=O)OC)[C@@H](C(=O)OC)N(C(C)=O)N1C

**Result**
101 % of control
93 % of control
103 % of control
99 % of control
97 % of control
108 % of control
105 % of control

Report T/C for every entry below.
1. COC(=O)C1=C(C(=O)OC)P2(C)(C)ON(c3ccccc3)C(C(=O)c3ccccc3)N2C1(c1ccccc1)c1ccccc1 (configuration not stated)
2. CC1CCCC(C)N1CC#CCNC(=O)C1CCC(=O)N1 (configuration not stated)
3. COc1cc(C(=O)C2OC2c2ccc(Cl)cc2)c([N+](=O)[O-])cc1OC (configuration not stated)

**Result**
1. 93 % of control
2. 121 % of control
3. 98 % of control
